Attribution: a melting point compilation (Tetko et al.; mined from patent text by program, amines drawn as free bases though some values may be those of a salt)

MEASURE_NAME: melting point

{"COMPOUND": "CC(=O)OC1CCC2(C)C(CCC3=C4C(=O)CC(C(C)CCCOS(=O)(=O)c5ccc(C)cc5)C4(C)CCC32)C1 (stereo unspecified)", "melting point": "158 to 160 °C"}
{"COMPOUND": "CC(c1ccc(I)cc1)C(O)(Cn1cncn1)c1ccc(F)cc1F (stereo unspecified)", "melting point": "169 to 171 °C"}
{"COMPOUND": "C=CCOC(=O)Nc1sc(-c2cccc(Cl)c2)cc1C(=O)OC", "melting point": "149 to 150 °C"}
{"COMPOUND": "CCCCc1oc2ccc(-c3nc(C)no3)cc2c1C(=O)c1ccc(OCCCBr)cc1", "melting point": "85 to 87 °C"}
{"COMPOUND": "Cc1cc(C(O)C(=O)c2ccccc2)c(C)c(C)c1C (stereo unspecified)", "melting point": "99 to 101 °C"}

Here's the next entry for you.
// sample O=C1CCCc2c(-c3ccccc3)[nH]c(-c3ccncc3)c21 , its melting point was 254 to 255 °C

---

List of melting point values.

Study these solved cases before continuing.
{"COMPOUND": "N#CCC1OC(n2cnc3c(NN4CCCCC4)nc(Cl)nc32)C(O)C1O (stereo not drawn)", "melting point": "192 to 193 °C"}
{"COMPOUND": "Nc1n[nH]cc1C(=O)c1ccccc1", "melting point": "177 to 179 °C"}
{"COMPOUND": "Fc1ccc2c(c1)C1OC1c1ccccc1C2 (stereo not drawn)", "melting point": "239 °C"}

// sample CCN(C(=O)N(CC)c1ccc2c(c1)C(C)(C)CCC2(C)C)c1ccc(C(=O)O)cc1 , its melting point was 169 to 172 °C

// sample COC(=O)C(C)(C)Sc1cccc(OC(=O)Nc2ccc(C(F)(F)F)cc2)c1 , its melting point was 66 to 67 °C

// sample COc1cccc(C(=O)O)c1NC(=O)C(C)(C)C , its melting point was 117 to 120 °C

// sample COc1cccc(OC)c1-c1cc(C(=O)NC2(C(=O)O)C3CC4CC(C3)CC2C4)nn1-c1ccc(CNC(C)=O)c2ccccc12 (stereo not drawn) , its melting point was 211 °C

// sample CN1C(=O)CNC2=C1C=NC(Cl)=CN2c1ccccc1 , its melting point was 105 to 107 °C

// sample CC(=O)c1sc(N2CCN(Cc3cccc(C(F)(F)F)c3)C2=O)nc1C , its melting point was 149 to 151 °C

// sample CCOC(=O)Cc1cccc(N)n1 , its melting point was 66 to 68 °C

// sample NC(=O)c1ccnc(-c2csc(N=C(N)N)n2)c1 , its melting point was 169 to 171 °C

// sample Cc1cnc2c(C#N)c(C)nn2c1-c1cccnc1 , its melting point was 207 to 209 °C

// sample CCC(=O)c1c(C)cc(NC(C)(C)C)nc1NC(C)(C)C , its melting point was 102 to 103 °C

---

MEASURE_NAME: melting point

Study these solved cases before continuing.
{"COMPOUND_STRUCTURE": "CC(C)(C)c1cc(O)n[nH]1", "MEASURE_NAME": "melting point", "RESULT": "205 to 206 °C"}
{"COMPOUND_STRUCTURE": "CO[C@@H]1[C@@H](OC)[C@H](C)O[C@@H](OC(=O)Nc2ccc(-c3ncn(-c4ccc(OC(F)(F)F)cc4)n3)cc2)[C@@H]1OC", "MEASURE_NAME": "melting point", "RESULT": "186 to 188 °C"}

Here's the next entry for you.
// sample CCC1(CC)CCNC1=O , its melting point was 52 to 53 °C
